Listed here are molecules together with their documented Ki.
system name: Sodium-dependent serotonin transporter (Homo sapiens, UniProt P31645)
Sequence (P31645 whole entry): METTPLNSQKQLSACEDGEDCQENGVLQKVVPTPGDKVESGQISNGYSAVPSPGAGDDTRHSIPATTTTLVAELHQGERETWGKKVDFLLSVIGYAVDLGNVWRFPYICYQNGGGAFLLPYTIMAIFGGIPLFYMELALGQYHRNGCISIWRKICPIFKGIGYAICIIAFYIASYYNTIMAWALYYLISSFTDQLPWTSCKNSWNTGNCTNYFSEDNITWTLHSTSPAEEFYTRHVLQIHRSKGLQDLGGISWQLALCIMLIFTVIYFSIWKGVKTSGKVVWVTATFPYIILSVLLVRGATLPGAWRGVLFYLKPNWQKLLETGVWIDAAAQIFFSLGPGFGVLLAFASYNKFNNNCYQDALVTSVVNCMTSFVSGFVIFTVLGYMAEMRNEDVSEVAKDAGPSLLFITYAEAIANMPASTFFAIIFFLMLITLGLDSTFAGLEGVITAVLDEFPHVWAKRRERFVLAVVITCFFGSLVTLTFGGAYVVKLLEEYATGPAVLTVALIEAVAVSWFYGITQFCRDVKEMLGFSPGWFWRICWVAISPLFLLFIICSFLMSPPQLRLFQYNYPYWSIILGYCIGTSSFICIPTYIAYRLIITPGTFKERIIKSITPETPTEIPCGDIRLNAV
Write the number in nM without appending the unit.

Some solved entries appear below for comparison.
> print(dat)
                                smiles.repr                               system.name  value
1  COc1ccc([C@H]2C[C@H]3CC[C@H]([C@H]2C(=O)OCCc2ccc(N)c(Br)c2)N3C)cc1  Sodium-dependent serotonin transporter (Homo sapiens, UniProt P31645)    4.1
2  COC(=O)[C@H]1[C@@H](c2ccc(OC)cc2)C[C@H]2CC[C@H]1N2C  Sodium-dependent serotonin transporter (Homo sapiens, UniProt P31645)    4.3

### Prompt Name the reported Ki value associated with the molecule `COC(=O)[C@H]1[C@@H](c2ccc(OC)c(Br)c2)C[C@H]2CC[C@H]1N2C`
### Response 3.1
